- Test system: NOMO1
- ASSAY_EXPLANATION: cell viability relative to DMSO control; higher = less cytotoxic
- EXPERIMENTAL_PARAMETERS: RPMI 5 mM glucose + 10% dialyzed FBS; 48 h; 1.71 µM
Examples of molecules with documented cell viability follow.

MOLECULE	cell viability / %
CCCCCOC(=O)NC\1=N\C(=O)N(\C=C1F)[C@@H]2O[C@H](C)[C@@H](O)[C@H]2O	109
CC(=O)O.Cc1c(-c2ccc(O)cc2)n(Cc2ccc(OCCN3CCCCCC3)cc2)c2ccc(O)cc12	98.1
Cc1ccc(NC(=O)c2ccc(CN3CCN(C)CC3)cc2)cc1Nc1nc(-c2cccnc2)cs1	86.1
CCC1(C)CC(=O)NC1=O (stereo not given)	92.7
CC(C)(C)c1cc(NC(=O)Nc2ccc(-c3cn4c(n3)sc3cc(OCCN5CCOCC5)ccc34)cc2)no1	93.1
